assay: ATG_PPRE_CIS: Attagene CIS-FACTORIAL HepG2 Assay for human Peroxisome Proliferator-activated Response Element (PPRE) (AID 2282958); conditions: HepG2 PPRE cis-element reporter, Attagene transcription factor profiling; actives raise or lower the signal
Activity calls are given as the source filed them. How the source made its calls: active means hit-call score of the fitted dose curve at least 0.9, where 1 is the maximum; inactive means score below 0.9.
Field 'call' accepts y = active, n = inactive

Worked cases, answers included:
>>> answer_label("CC(=O)Nc1ccc(S(N)(=O)=O)cc1")
"n"
>>> answer_label("Nc1ccc(O)c(C(=O)O)c1")
"n"
>>> answer_label("NCCN")
"n"

Prompt: Outcome logged for COC(=O)CC(C(C)=O)C(=O)OC (stereo not drawn) in this assay:
Completion: n

Prompt: Outcome logged for CC(C)(C)c1ccc(O)c(O)c1 in this assay:
Completion: n

Prompt: Outcome logged for O=C1c2ccccc2C(=O)c2c(O)c(O)cc(O)c21 in this assay:
Completion: n

Prompt: Outcome logged for Brc1cc(Br)c(Oc2c(Br)cc(Br)c(Br)c2Br)cc1Br in this assay:
Completion: n

Prompt: Outcome logged for CC(O)COc1ccccc1 (stereo not drawn) in this assay:
Completion: n

----------
read-out: CD40, CD40 (gene 958); experiment: BSK_SAg_CD40: BioMAP Diversity Plus: SAg Assay for CD40 Biomarker Activity (AID 2283088); conditions: primary human HUVEC with PBMC; actives raise or lower the signal
Active and inactive are the calls of the source. Rule for the calls: active = hit-call score of the fitted dose curve at least 0.9, where 1 is the maximum; inactive = score below 0.9.
Field 'call' accepts active, inactive

>>> answer_label("CN(C)CCOC(c1ccccc1)c1ccccc1")
"inactive"
>>> answer_label("C=CC(C)(CCC=C(C)C)OC(C)=O (stereo unspecified)")
"inactive"
>>> answer_label("O=C(O)CCC(F)(F)C(F)(F)C(F)(F)C(F)(F)C(F)(F)F")
"inactive"
>>> answer_label("O=C(NCc1ncc(C(F)(F)F)cc1Cl)c1c(Cl)cccc1Cl")
"inactive"
>>> answer_label("Cc1cccc2c1ccc1ccccc12")
"inactive"

Prompt: Outcome logged for CCCCCCCCCCCCCCCCCC[N+](C)(C)Cc1ccccc1 in this assay:
Completion: active

----------
read-out: Interleukin 17A (IL17A), IL17A (gene 3605); assay: BSK_BT_xIL17A: BioMAP Diversity Plus: BT Assay for Interleukin 17A (IL17A) Biomarker Activity (AID 2284229); details: primary human B cells with PBMC
The source made the active and inactive calls. Rule for the calls: active = hit-call score of the fitted dose curve at least 0.9, where 1 is the maximum; inactive = score below 0.9.
Field 'call' accepts active, inactive

Worked cases, answers included:
>>> answer_label("CN(CCO)S(=O)(=O)C(F)(F)C(F)(F)C(F)(F)C(F)(F)C(F)(F)C(F)(F)C(F)(F)C(F)(F)F")
"inactive"
>>> answer_label("CCCCCc1ccc(O)cc1")
"inactive"

Prompt: Outcome logged for O=C(NO)c1ccccc1 in this assay:
Completion: active

Prompt: Outcome logged for CCCCCCCCCCCCCCCCCC[N+](C)(C)Cc1ccccc1 in this assay:
Completion: active

Prompt: Outcome logged for Clc1ccc(Nc2nnc(Cc3ccncc3)c3ccccc23)cc1 in this assay:
Completion: inactive

Prompt: Outcome logged for CN(C)c1ccc(C(=C2C=CC(=[N+](C)C)C=C2)c2ccccc2)cc1 in this assay:
Completion: active

----------
read-out: Interleukin 6 (IL6), IL6 (gene 3569); assay: BSK_BT_xIL6: BioMAP Diversity Plus: BT Assay for Interleukin 6 (IL6) Biomarker Activity (AID 2284228); conditions: primary human B cells with PBMC
Calls of active or inactive are those of the source. Rule for the calls: active = hit-call score of the fitted dose curve at least 0.9, where 1 is the maximum; inactive = score below 0.9.
Field 'call' accepts 1 (active), -1 (inactive)

Worked cases, answers included:
>>> answer_label("Cc1cccc2c1ccc1ccccc12")
1
>>> answer_label("C[C@]12CC[C@@H]3c4ccc(O)cc4CC[C@H]3[C@@H]1C[C@@H](O)[C@@H]2O")
-1
>>> answer_label("CC1=NN(c2ccccc2)C(=O)C1")
1
>>> answer_label("O=P(O)(O)CCC(F)(F)C(F)(F)C(F)(F)C(F)(F)C(F)(F)C(F)(F)F")
-1
>>> answer_label("COc1cccc(O)c1")
-1
>>> answer_label("COC1=CC(=O)C[C@@H](C)[C@]12Oc1c(Cl)c(OC)cc(OC)c1C2=O")
-1

Prompt: Outcome logged for O=C(O)CCC(F)(F)C(F)(F)C(F)(F)C(F)(F)C(F)(F)C(F)(F)F in this assay:
Completion: -1

Prompt: Outcome logged for O=S(=O)(O)C(F)(F)C(F)(F)C(F)(F)C(F)(F)C(F)(F)C(F)(F)C(F)(F)C(F)(F)C(F)(F)C(F)(F)F in this assay:
Completion: -1

Prompt: Outcome logged for Clc1ccc(Nc2nnc(Cc3ccncc3)c3ccccc23)cc1 in this assay:
Completion: 1

Prompt: Outcome logged for COCN(COC)c1nc(N(COC)COC)nc(N(COC)COC)n1 in this assay:
Completion: -1

Prompt: Outcome logged for CCCCCCCCCCCCCCCCCC[N+](C)(C)Cc1ccccc1 in this assay:
Completion: 1

----------
assay: CCTE_Shafer_MEA_dev_network_spike_peak: CCTE's Neural Network Formation Assay for Mean Number of Electrodes in Network Spike, Shafer Lab (AID 2284049);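 on AC50: fitted for loss of signal meaning fewer electrodes in network spikes than DMSO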
The source made the active and inactive calls. The calls were made as follows: active = hit-call score of the fitted dose curve at least 0.9, where 1 is the maximum; inactive = score below 0.9.
Observed Property: AC50

>>> result("O=C(CC(=O)C(F)(F)C(F)(F)C(F)(F)F)c1cccs1")
"7.42 µM (active)"
>>> result("O=C1NS(=O)(=O)c2ccccc21")
"inactive"
>>> result("CC(C)c1c(C(=O)Nc2ccccc2)c(-c2ccccc2)c(-c2ccc(F)cc2)n1CC[C@@H](O)C[C@@H](O)CC(=O)O")
"0.00641 µM (active)"
>>> result("FCOC(C(F)(F)F)C(F)(F)F")
"inactive"

----------
read-out: Interleukin-8 (IL8), CXCL8 (gene 3576); test: BSK_CASM3C_IL8: BioMAP Diversity Plus: CASM3C Assay for Interleukin-8 (IL8) Biomarker Activity (AID 2283042); conditions: primary human coronary artery smooth muscle cells; actives raise or lower the signal;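 further: IL-8 protein level quantified by ELISA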
Activity calls are given as the source filed them. Rule for the calls: active = hit-call score of the fitted dose curve at least 0.9, where 1 is the maximum; inactive = score below 0.9.
Observed Property: outcome

>>> result("OCC(CO)(CBr)CBr")
"inactive"
>>> result("Clc1ccc(Nc2nnc(Cc3ccncc3)c3ccccc23)cc1")
"inactive"
>>> result("CCCCC(CC)C(=O)O (stereo not drawn)")
"inactive"

----------
test: ATG_NRF2_ARE_CIS: Attagene CIS-FACTORIAL HepG2 Assay for human Nuclear Factor Erythroid 2 Related Factor 2 (NFR2) response to Antioxidant Response Elements (ARE) (AID 2282992); conditions: HepG2 Attagene ARE/NRF2 reporter, transcription factor activity; actives raise or lower the signal
Activity calls are given as the source filed them. Rule for the calls: active = hit-call score of the fitted dose curve at least 0.9, where 1 is the maximum; inactive = score below 0.9.
Field 'call' accepts active, inactive

Worked cases, answers included:
>>> answer_label("CC1=CC(=O)c2ccccc2C1=O")
"active"
>>> answer_label("C[C@]12CC[C@@H]3c4ccc(O)cc4CC[C@H]3[C@@H]1CC[C@@H]2OC(=O)CCC1CCCC1")
"active"
>>> answer_label("CC1=NN(c2ccccc2)C(=O)C1")
"inactive"
>>> answer_label("Cc1cc(C(=C2C=CC(=Nc3ccc(S(=O)(=O)O)cc3)C=C2)c2ccc(Nc3ccc(S(=O)(=O)O)cc3)cc2)cc(S(=O)(=O)O)c1N")
"inactive"

Prompt: Outcome logged for Cc1cccc2c1ccc1ccccc12 in this assay:
Completion: inactive

Prompt: Outcome logged for C=CCOCC(CO)(CO)CO in this assay:
Completion: inactive

Prompt: Outcome logged for C=CC(C)(CCC=C(C)C)OC(C)=O (stereo not drawn) in this assay:
Completion: inactive

Prompt: Outcome logged for CCC(=O)C=Cc1ccc(OC)cc1 in this assay:
Completion: active

Prompt: Outcome logged for FC(F)(F)C1(F)C(F)(F)C(F)(F)C(F)(F)C(F)(C(F)(F)F)C1(F)F (stereo not drawn) in this assay:
Completion: inactive

Prompt: Outcome logged for COC(=O)C(F)(F)C(F)(F)C(F)(F)F in this assay:
Completion: inactive

Prompt: Outcome logged for O=C(NCc1ncc(C(F)(F)F)cc1Cl)c1c(Cl)cccc1Cl in this assay:
Completion: active

Prompt: Outcome logged for CCOC(=O)CN[C@@H](C(=O)N1CC[C@H]1C(=O)NCc1ccc(/C(N)=N/O)cc1)C1CCCCC1 in this assay:
Completion: inactive

Prompt: Outcome logged for Nc1ccc(O)c(C(=O)O)c1 in this assay:
Completion: inactive

Prompt: Outcome logged for O=CC(F)(F)C(F)(F)C(F)(F)F in this assay:
Completion: inactive

Prompt: Outcome logged for Oc1c(Cl)ccc(Cl)c1Cl in this assay:
Completion: inactive

Prompt: Outcome logged for CC1CCC(C(=O)O)CC1 (stereo not drawn) in this assay:
Completion: inactive

Prompt: Outcome logged for NNc1nc(-c2ccc([N+](=O)[O-])cc2)cs1 in this assay:
Completion: active

Prompt: Outcome logged for CCOCCOCC in this assay:
Completion: inactive

Prompt: Outcome logged for C=CC(=O)OCC(CO)(COCC(COC(=O)C=C)(COC(=O)C=C)COC(=O)C=C)COC(=O)C=C in this assay:
Completion: inactive

Prompt: Outcome logged for O=C(O)CCC(F)(F)C(F)(F)C(F)(F)C(F)(F)C(F)(F)F in this assay:
Completion: inactive

Prompt: Outcome logged for CC(C)(C)C1CCCCC1O (stereo not drawn) in this assay:
Completion: inactive

Prompt: Outcome logged for COc1cc([N+](=O)[O-])ccc1N in this assay:
Completion: inactive

Prompt: Outcome logged for CCCCCCC(C)(C)C(=O)O in this assay:
Completion: active

Prompt: Outcome logged for Nc1ccn([C@@H]2O[C@H](CO)[C@@H](O)C2O)c(=O)n1 (stereo partly drawn) in this assay:
Completion: inactive
